B1: TOR1AIP2 (parent)
chain: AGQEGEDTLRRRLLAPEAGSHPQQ

variants of: B1; assay: protein stability index of a GFP-peptide fusion (GPS, HEK-293T) (PSI 1-6); higher = more stable; settings: c terminus: a fixed tail appended;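 further: lentivirally expressed fusions sorted by FACS into six bins by GFP to DsRed ratio, PSI derived from sequencing read proportions per bin multiplied by bin number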

# mutation spec, protein stability index
records = [
    ("R11N", 4.6),
    ("G5I", 2.72),
    ("E17L", 2.13),
    ("L13R", 5.04),
    ("H21G", 2.47),
    ("E6D", 2.79),
    ("A1L", 2),
    ("P22A", 2.58),
    ("Q23G", 1.78),
    ("G19K", 1.86),
    ("D7V", 1.76),
    ("Q24W", 2.17),
    ("Q24Y", 2.46),
    ("L14Q", 5.68),
    ("D7S", 2.04),
    ("S20T", 2.1),
    ("E17G", 3.5),
    ("E6V", 2.53),
    ("A15V", 5.17),
    ("A1H", 3.53),
    ("E4I", 1.74),
    ("Q3N", 1.82),
    ("L9R", 4.45),
    ("L13D", 4.91),
    ("E17M", 2.79),
    ("P22S", 1.81),
    ("G5S", 2.03),
    ("R10V", 4.26),
    ("G19H", 2.22),
    ("R10K", 5.06),
    ("E17S", 4.34),
    ("G2A", 4.25),
    ("S20D", 3.33),
    ("P16C", 4.47),
    ("L13I", 1.82),
    ("A15S", 3),
    ("A18F", 2.16),
    ("D7T", 3.15),
    ("E4R", 1.29),
    ("G2E", 2.74),
    ("Q3Y", 1.37),
    ("H21P", 2.82),
    ("S20A", 2.45),
    ("A18H", 3.03),
    ("L9C", 4.29),
    ("E4V", 2.79),
    ("P16W", 3.99),
    ("T8F", 3.06),
    ("T8E", 2.79),
    ("Q24R", 2.05),
    ("G2S", 2.71),
    ("E6I", 2.13),
    ("L13W", 3.21),
    ("H21I", 2.96),
    ("R10P", 5.19),
    ("Q24V", 2.58),
    ("R11Y", 1.16),
    ("E4M", 2.05),
    ("E6L", 1.94),
    ("A18D", 3.62),
    ("S20F", 1.73),
    ("D7F", 2.47),
    ("G5Q", 2.99),
    ("L13P", 5.6),
    ("R11F", 2.02),
    ("L13V", 3.31),
    ("G19W", 1.31),
    ("E17V", 4.57),
]
